# PROCEDURE DETAILS: background-corrected fluorescence of 3'-dye-labeled ssDNA relative to brightest sequence (3'-GCGCG) (fraction); higher = brighter dye fluorescence (less quenching)
# RECORDED CONDITIONS: dye: Cy5 (3' terminal)
REPORTED PROPERTY: background-corrected fluorescence
Answers are plain numbers.

// worked examples, background-corrected fluorescence included
RESIDUE CODES	ASSAY VALUE
TTTTTGCAGCATGCTGATGCTTTTTTTTTTTTTTTTTACA [ACATT]	0.397
TTTTTGCATGATGCGCATGCTTTTTTTTTTTTTTTTCATA [ATACT]	0.396

Then there is this sequence:
Problem: Could you tell me which background-corrected fluorescence is on file for TTTTTTCATCATGATGCGCATTTTTTTTTTTTTTTGGCAT [TACGG] ?
Solution: 0.406

====

So I've got a bunch of sequences here, and I need their background-corrected fluorescence values.
# PROCEDURE DETAILS: background-corrected fluorescence of 3'-dye-labeled ssDNA relative to brightest sequence (3'-GCGCG) (fraction); higher = brighter dye fluorescence (less quenching)
# RECORDED CONDITIONS: dye: Cy5 (3' terminal)
Numbers only.

Solved entries:
RESIDUE CODES	REPORTED PROPERTY	ASSAY VALUE
TTTTTTGATCATGATGCTCATTTTTTTTTTTTTTTCGCAG [GACGC]	background-corrected fluorescence	0.446
TTTTTTCAGCATGATGCTGATTTTTTTTTTTTTTTGTCAC [CACTG]	background-corrected fluorescence	0.336
TTTTTTGATGCGCATGCTGATTTTTTTTTTTTTTTCATAC	background-corrected fluorescence	0.314
TTTTTTCAGCATCAGCATGATTTTTTTTTTTTTTTGTGTC [CTGTG]	background-corrected fluorescence	0.356
TTTTTTGCGCAGCATGATGATTTTTTTTTTTTTTTATTCC [CCTTA]	background-corrected fluorescence	0.272

Problem: I have this sequence here, TTTTTTCATGAGCATGCTGATTTTTTTTTTTTTTTGCTAC [CATCG] , and I need its recorded background-corrected fluorescence.
Solution: 0.338

====

What background-corrected fluorescence was measured for each of the following?
# PROCEDURE DETAILS: background-corrected fluorescence of 3'-dye-labeled ssDNA relative to brightest sequence (3'-GCGCG) (fraction); higher = brighter dye fluorescence (less quenching)
# RECORDED CONDITIONS: dye: Cy3 (3' terminal)
One number for each entry.

RESIDUE CODES	REPORTED PROPERTY	ASSAY VALUE
TTTTTTCATCAGCATGATGCTTTTTTTTTTTTTTTGGTCA [ACTGG]	background-corrected fluorescence	0.506

Give me background-corrected fluorescence for each of these sequences, listed below.
1. TTTTTGCATGCTGAGCAGCATTTTTTTTTTTTTTTTACTT [TTCAT]
2. TTTTTTCATGATCATGATGATTTTTTTTTTTTTTTGCGCC [CCGCG]

Solution:
0.504
0.505

====

Exercise: for every item that follows, state its recorded background-corrected fluorescence.
# PROCEDURE DETAILS: background-corrected fluorescence of 3'-dye-labeled ssDNA relative to brightest sequence (3'-GCGCG) (fraction); higher = brighter dye fluorescence (less quenching)
# RECORDED CONDITIONS: dye: Cy5 (3' terminal)
Give bare numbers.

Example results:
RESIDUE CODES	ASSAY VALUE
TTTTTGCATCATCATGATCATTTTTTTTTTTTTTTTGGCG [GCGGT]	0.516
TTTTTTCATCAGCAGCATGATTTTTTTTTTTTTTTGGTTC [CTTGG]	0.31
TTTTTTCAGCATGCGCATGCTTTTTTTTTTTTTTTGTATA [ATATG]	0.404
TTTTTTGATGCTGATGCTCATTTTTTTTTTTTTTTCACAG [GACAC]	0.384
TTTTTTGCTCATGATGATGCTTTTTTTTTTTTTTTAGCCA [ACCGA]	0.394

The following sequences each have a reported value; give each one's background-corrected fluorescence.
1. TTTTTTCATCATGAGCATGATTTTTTTTTTTTTTTGGCTC [CTCGG]
2. TTTTTGCATCATGCTCATGCTTTTTTTTTTTTTTTTGAGA [AGAGT]
3. TTTTTTGAGCATCATGATGATTTTTTTTTTTTTTTCTGCC [CCGTC]
4. TTTTTTGCTGCTGCTGAGCATTTTTTTTTTTTTTTAAACT [TCAAA]
5. TTTTTTGAGCATGCGCATCATTTTTTTTTTTTTTTCTATG [GTATC]

Solution:
1. 0.337
2. 0.593
3. 0.312
4. 0.349
5. 0.383

Each sequence below has a reported value. Please supply its background-corrected fluorescence.
1. TTTTTTCATGATGCTGATGCTTTTTTTTTTTTTTTGCACA [ACACG]
2. TTTTTTGATGATGCTGATGCTTTTTTTTTTTTTTTCCACA [ACACC]
3. TTTTTTGATCATGAGCATGCTTTTTTTTTTTTTTTCGCTA [ATCGC]
4. TTTTTGCAGCATGATCATCATTTTTTTTTTTTTTTTTCGG [GGCTT]
5. TTTTTGCATGAGCATGAGCATTTTTTTTTTTTTTTTCTCT
6. TTTTTTCAGCAGCATGATCATTTTTTTTTTTTTTTGTTCG [GCTTG]

Solution:
1. 0.375
2. 0.375
3. 0.399
4. 0.485
5. 0.332
6. 0.371

Problem: So what does the record say about background-corrected fluorescence for TTTTTGCATGAGCATCATGATTTTTTTTTTTTTTTTCTGC [CGTCT] ?
Solution: 0.368

====

# PROCEDURE DETAILS: background-corrected fluorescence of 3'-dye-labeled ssDNA relative to brightest sequence (3'-GCGCG) (fraction); higher = brighter dye fluorescence (less quenching)
# RECORDED CONDITIONS: dye: Cy5 (3' terminal)
REPORTED PROPERTY: background-corrected fluorescence
Numbers only.

RESIDUE CODES	REPORTED PROPERTY	ASSAY VALUE
TTTTTGCATGATGCTCAGCATTTTTTTTTTTTTTTTCAGT [TGACT]	background-corrected fluorescence	0.488
TTTTTTGCGCATCATGAGCATTTTTTTTTTTTTTTATGCT [TCGTA]	background-corrected fluorescence	0.393
TTTTTTGCTGATCATCATCATTTTTTTTTTTTTTTACGGG [GGGCA]	background-corrected fluorescence	0.579
TTTTTTGCTGAGCAGCATGATTTTTTTTTTTTTTTACTTC [CTTCA]	background-corrected fluorescence	0.312
TTTTTTGCTGCTCATCATGCTTTTTTTTTTTTTTTAAGGA [AGGAA]	background-corrected fluorescence	0.635
TTTTTGCATGCTGCTGCTGCTTTTTTTTTTTTTTTTAAAA [AAAAT]	background-corrected fluorescence	0.52
TTTTTTGCTCATCAGCATGATTTTTTTTTTTTTTTAGGTC [CTGGA]	background-corrected fluorescence	0.376
TTTTTTGATGAGCATGATGCTTTTTTTTTTTTTTTCCTCA [ACTCC]	background-corrected fluorescence	0.377

For each listed entry, give its background-corrected fluorescence.
1. TTTTTGCATCAGCATCATGCTTTTTTTTTTTTTTTTGTGA [AGTGT]
2. TTTTTGCATGATGATGCGCATTTTTTTTTTTTTTTTCCAT [TACCT]

Solution:
[0.564, 0.344]

====

# PROCEDURE DETAILS: background-corrected fluorescence of 3'-dye-labeled ssDNA relative to brightest sequence (3'-GCGCG) (fraction); higher = brighter dye fluorescence (less quenching)
# RECORDED CONDITIONS: dye: Cy5 (3' terminal)
REPORTED PROPERTY: background-corrected fluorescence
Give bare numbers.

RESIDUE CODES	REPORTED PROPERTY	ASSAY VALUE
TTTTTGCATGCTGCGCATGATTTTTTTTTTTTTTTTAATC [CTAAT]	background-corrected fluorescence	0.303
TTTTTGCATCATGATCATGATTTTTTTTTTTTTTTTGCGC [CGCGT]	background-corrected fluorescence	0.48
TTTTTGCATGCTCATCATGCTTTTTTTTTTTTTTTTAGGA [AGGAT]	background-corrected fluorescence	0.617

Hi there! I need background-corrected fluorescence for each item below, if you can.
1. TTTTTTGCTCATCATGCGCATTTTTTTTTTTTTTTAGGAT
2. TTTTTTGCGCATGCGCATCATTTTTTTTTTTTTTTATATG [GTATA]
3. TTTTTTCATGATGCGCATGCTTTTTTTTTTTTTTTGCATA [ATACG]
4. TTTTTTCAGCATCATGAGCATTTTTTTTTTTTTTTGTGCT [TCGTG]
5. TTTTTTCATGCGCATGCTGCTTTTTTTTTTTTTTTGATAA [AATAG]

Solution:
1. 0.463
2. 0.407
3. 0.431
4. 0.414
5. 0.452

Each of the following entries comes with a recorded value; kindly state background-corrected fluorescence for each.
1. TTTTTTGATGATGAGCATCATTTTTTTTTTTTTTTCCCTG [GTCCC]
2. TTTTTTGATGAGCATGCGCATTTTTTTTTTTTTTTCCTAT [TATCC]

Solution:
1: 0.364; 2: 0.361

Origin of measurements: the supplement of paper PMC9428881
